# Assay Procedure: Plasma pharmacokinetics of ensifentrine in COPD patients, popPK model simulation from trial samples
# Format: in vivo, human
# Conditions Used: human, plasma, inhaled, 3 mg; patients with COPD
Observable: Cmax (ng/mL)
// return numeric value only (unit: ng/mL, not printed)

Cmax reported for this compound COc1cc2c(cc1OC)-c1c/c(=N\c3c(C)cc(C)cc3C)n(CCNC(N)=O)c(=O)n1CC2 : 0.522

====

# Assay Procedure: Plasma pharmacokinetics of ensifentrine after administration of the composition to healthy patients
# Assay type: in vivo
# Conditions Used: human, inhaled, read-out: mean AUC0-∞
Observable: AUC(0-inf) (ng·h/mL)
// return numeric value only (unit: ng·h/mL, not printed)

AUC(0-inf) reported for this compound COc1cc2c(cc1OC)-c1c/c(=N\c3c(C)cc(C)cc3C)n(CCNC(N)=O)c(=O)n1CC2 [Ensifentrine] : 5.93
